biological target: Ectonucleoside triphosphate diphosphohydrolase 2 (Homo sapiens) (UniProt Q9Y5L3); assay: Activity of human NTPDase 2 expressed in human 293T cells assessed as drug hydrolysis at 100 uM after 20 mins relative to ATP; type: cell-based; set-up: scale not given: the % may be the effect or the level left
Sequence (Q9Y5L3 whole entry): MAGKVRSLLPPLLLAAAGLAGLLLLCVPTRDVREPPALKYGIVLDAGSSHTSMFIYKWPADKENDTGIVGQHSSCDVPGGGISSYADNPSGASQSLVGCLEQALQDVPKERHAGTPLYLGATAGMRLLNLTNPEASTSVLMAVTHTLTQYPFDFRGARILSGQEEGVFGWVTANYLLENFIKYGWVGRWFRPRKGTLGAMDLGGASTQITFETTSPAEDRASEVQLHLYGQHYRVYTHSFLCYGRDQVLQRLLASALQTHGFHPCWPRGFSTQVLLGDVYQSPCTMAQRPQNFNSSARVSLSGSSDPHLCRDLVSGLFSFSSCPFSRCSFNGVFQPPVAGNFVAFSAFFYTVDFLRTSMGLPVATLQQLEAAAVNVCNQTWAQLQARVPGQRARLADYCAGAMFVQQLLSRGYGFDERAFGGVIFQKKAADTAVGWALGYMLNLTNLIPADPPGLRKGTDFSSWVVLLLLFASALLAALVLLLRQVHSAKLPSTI
resultType: Activity (%)

Below are worked cases with known answers.
| compound | resultType | experimentalResult |
| --- | --- | --- |
| BP(=O)(OC[C@H]1O[C@@H](n2cnc3c(N)nc(SC)nc32)[C@H](O)[C@@H]1O)OP(=O)(O)CP(=O)(O)O (single isomer, unassigned; diastereomer B) | Activity | 1 |
| BP(=O)(OC[C@H]1O[C@@H](n2cnc3c(N)ncnc32)[C@H](O)[C@@H]1O)OP(=O)(O)CP(=O)(O)O (stereo not given in full) | Activity | 1 |
| CSc1nc(N)c2ncn([C@@H]3O[C@H](COP(=O)(O)OP(=O)(O)CP(=O)(O)O)[C@@H](O)[C@H]3O)c2n1 | Activity | 2 |

[A] BP(=O)(OC[C@H]1O[C@@H](n2cnc3c(N)nc(SC)nc32)[C@H](O)[C@@H]1O)OP(=O)(O)CP(=O)(O)O (single isomer, unassigned; diastereomer A)
[B] BP(=O)(OC[C@H]1O[C@@H](n2cnc3c(N)ncnc32)[C@H](O)[C@@H]1O)OP(=O)(O)CP(=O)(O)O (single isomer, unassigned; diastereomer B)
Request: Given the two records A and B , choose the one whose Activity value is lower. Provide the label of your selected option as the answer.
Response: B
(B: 0%, A: 1%)

----------
molecular target: UniProtKB P51582; assay: Antagonist activity at human P2Y4 receptor expressed in human 1321N1 cells assessed as inhibition of UTP-induced increase in intracellular calcium concentration by dual-excitation spectrofluorimetric analysis; assay type: functional, cell-based
Activity calls are given as the source filed them. The calls are words filed in the database; no cut-off is given here.
resultType: Activity

Before answering, review these 4 worked examples.
| molecule | resultType | experimentalResult |
| --- | --- | --- |
| BP(=O)(OC[C@H]1O[C@@H](n2cnc3c(N)ncnc32)[C@H](O)[C@@H]1O)OP(=O)(O)CP(=O)(O)O (stereo not given in full) | Activity | inactive |
| CSc1nc(N)c2ncn([C@@H]3O[C@H](COP(=O)(O)OP(=O)(O)CP(=O)(O)O)[C@@H](O)[C@H]3O)c2n1 | Activity | inactive |
| BP(=O)(OC[C@H]1O[C@@H](n2cnc3c(N)nc(SC)nc32)[C@H](O)[C@@H]1O)OP(=O)(O)CP(=O)(O)O (single isomer, unassigned; diastereomer A) | Activity | inactive |
| BP(=O)(OC[C@H]1O[C@@H](n2cnc3c(N)ncnc32)[C@H](O)[C@@H]1O)OP(=O)(O)CP(=O)(O)O (single isomer, unassigned; diastereomer B) | Activity | inactive |

# evaluate next
Request: # Activity lookup, item BP(=O)(OC[C@H]1O[C@@H](n2cnc3c(N)nc(SC)nc32)[C@H](O)[C@@H]1O)OP(=O)(O)CP(=O)(O)O (single isomer, unassigned; diastereomer B)
Response: inactive

----------
assay: Chemical stability assessed as hydrolysis half life at pH 1.4 by 31P NMR analysis; format: physicochemical; settings: buffer
resultType: half-life (h)
Quick note: give the figure in h, leave out the unit.

Request: What half-life value was documented for this compound, BP(=O)(OC[C@H]1O[C@@H](n2cnc3c(N)nc(SC)nc32)[C@H](O)[C@@H]1O)OP(=O)(O)OP(=O)(O)O (single isomer, unassigned; diastereomer A) ?
Response: 5.9

----------
biological target: Ectonucleotide pyrophosphatase/phosphodiesterase family member 3 (Homo sapiens); experiment: Activity of human NPP3 expressed in human 293T cells assessed as drug hydrolysis at 100 uM after 20 mins by reverse-phase HPLC relative to p-nitrophenyl-thymidine-5-monophosphate; assay type: cell-based; set-up: scale not given: the % may be the effect or the level left
resultType: Activity (%)

| compound | Activity, % |
| --- | --- |
| BP(=O)(OC[C@H]1O[C@@H](n2cnc3c(N)nc(SC)nc32)[C@H](O)[C@@H]1O)OP(=O)(O)CP(=O)(O)O (single isomer, unassigned; diastereomer B) | 0 |
| CSc1nc(N)c2ncn([C@@H]3O[C@H](COP(=O)(O)OP(=O)(O)CP(=O)(O)O)[C@@H](O)[C@H]3O)c2n1 | 10 |

[I] BP(=O)(OC[C@H]1O[C@@H](n2cnc3c(N)ncnc32)[C@H](O)[C@@H]1O)OP(=O)(O)CP(=O)(O)O (single isomer, unassigned; diastereomer B)
[II] BP(=O)(OC[C@H]1O[C@@H](n2cnc3c(N)ncnc32)[C@H](O)[C@@H]1O)OP(=O)(O)CP(=O)(O)O (stereo not given in full)
[III] BP(=O)(OC[C@H]1O[C@@H](n2cnc3c(N)nc(SC)nc32)[C@H](O)[C@@H]1O)OP(=O)(O)CP(=O)(O)O (single isomer, unassigned; diastereomer A)
Request: Descending sort on Activity required. Returns: the labels listed in the requested order.
Response: III, I, II
(III: 9.9%, I: 3%, II: 0%)

----------
molecular target: Ectonucleoside triphosphate diphosphohydrolase 8 (Homo sapiens) (UniProt Q5MY95); experiment: Activity of human NTPDase 8 expressed in human 293T cells assessed as drug hydrolysis at 100 uM after 20 mins relative to ATP; assay type: cell-based; design: scale not given: the % may be the effect or the level left
Sequence (Q5MY95 whole entry): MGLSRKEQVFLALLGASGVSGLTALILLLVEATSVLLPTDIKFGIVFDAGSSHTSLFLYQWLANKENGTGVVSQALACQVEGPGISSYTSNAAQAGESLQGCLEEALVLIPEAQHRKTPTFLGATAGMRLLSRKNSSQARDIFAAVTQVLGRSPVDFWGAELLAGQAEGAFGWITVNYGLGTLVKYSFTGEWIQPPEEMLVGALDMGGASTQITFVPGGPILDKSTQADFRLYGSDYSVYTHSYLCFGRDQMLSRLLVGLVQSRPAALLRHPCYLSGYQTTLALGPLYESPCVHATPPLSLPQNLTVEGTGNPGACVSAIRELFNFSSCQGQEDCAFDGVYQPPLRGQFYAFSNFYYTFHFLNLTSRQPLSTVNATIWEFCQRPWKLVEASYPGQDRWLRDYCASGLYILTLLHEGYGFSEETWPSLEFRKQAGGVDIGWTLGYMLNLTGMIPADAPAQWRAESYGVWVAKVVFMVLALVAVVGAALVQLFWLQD
resultType: Activity (%)

Consider the reported Activity for these compounds:
| compound | units | Activity |
| --- | --- | --- |
| CSc1nc(N)c2ncn([C@@H]3O[C@H](COP(=O)(O)OP(=O)(O)CP(=O)(O)O)[C@@H](O)[C@H]3O)c2n1 | % | 7 |
| BP(=O)(OC[C@H]1O[C@@H](n2cnc3c(N)nc(SC)nc32)[C@H](O)[C@@H]1O)OP(=O)(O)CP(=O)(O)O (single isomer, unassigned; diastereomer B) | % | 3 |

[A] BP(=O)(OC[C@H]1O[C@@H](n2cnc3c(N)ncnc32)[C@H](O)[C@@H]1O)OP(=O)(O)CP(=O)(O)O (stereo not given in full)
[B] BP(=O)(OC[C@H]1O[C@@H](n2cnc3c(N)nc(SC)nc32)[C@H](O)[C@@H]1O)OP(=O)(O)CP(=O)(O)O (single isomer, unassigned; diastereomer A)
Request: Larger number for Activity: A , or B ? Lab log: write the label of the selected item as the result.
Response: B
(B: 4%, A: 2%)

----------
experiment: Chemical stability assessed as hydrolysis half life at 1.5 mg at pH 1.4 measured at 24 hrs interval for 12 days by 31P NMR analysis; assay type: physicochemical
resultType: half-life (days)
Give the value in days but do not write days after it.

Request: Quick one: half-life of CSc1nc(N)c2ncn([C@@H]3O[C@H](COP(=O)(O)OP(=O)(O)CP(=O)(O)O)[C@@H](O)[C@H]3O)c2n1 ?
Response: 2.71

----------
biological target: P2Y purinoceptor 1 (Rattus norvegicus); test: Agonist activity at rat pancreas P2Y1 receptor assessed as enhancement of insulin secretion
Sequence (P49651 whole entry): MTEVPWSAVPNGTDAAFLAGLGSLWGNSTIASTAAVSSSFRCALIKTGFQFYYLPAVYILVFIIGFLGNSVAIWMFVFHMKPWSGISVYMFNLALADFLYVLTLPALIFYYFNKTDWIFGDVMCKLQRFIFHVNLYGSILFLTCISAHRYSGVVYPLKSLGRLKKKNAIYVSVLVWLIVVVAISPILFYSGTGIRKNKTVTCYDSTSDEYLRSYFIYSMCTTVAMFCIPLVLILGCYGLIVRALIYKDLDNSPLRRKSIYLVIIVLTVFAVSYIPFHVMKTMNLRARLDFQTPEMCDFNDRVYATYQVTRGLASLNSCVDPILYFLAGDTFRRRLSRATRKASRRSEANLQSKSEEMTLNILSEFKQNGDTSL
resultType: pEC50
Remember the convention: pEC50 equals -log10 of concentration in molar.

Request: Entry BP(=O)(OC[C@H]1O[C@@H](n2cnc3c(N)nc(SC)nc32)[C@H](O)[C@@H]1O)OP(=O)(O)OP(=O)(O)O (single isomer, unassigned; diastereomer A) , system P2Y purinoceptor 1 (Rattus norvegicus): what pEC50 was measured?
Response: 7.55

----------
target: P2Y purinoceptor 4 (Homo sapiens, UniProt P51582); experiment: Agonist activity at human P2Y4 receptor expressed in human 1321N1 cells assessed as increase in intracellular calcium concentration by dual-excitation spectrofluorimetric analysis
Sequence (P51582 whole entry): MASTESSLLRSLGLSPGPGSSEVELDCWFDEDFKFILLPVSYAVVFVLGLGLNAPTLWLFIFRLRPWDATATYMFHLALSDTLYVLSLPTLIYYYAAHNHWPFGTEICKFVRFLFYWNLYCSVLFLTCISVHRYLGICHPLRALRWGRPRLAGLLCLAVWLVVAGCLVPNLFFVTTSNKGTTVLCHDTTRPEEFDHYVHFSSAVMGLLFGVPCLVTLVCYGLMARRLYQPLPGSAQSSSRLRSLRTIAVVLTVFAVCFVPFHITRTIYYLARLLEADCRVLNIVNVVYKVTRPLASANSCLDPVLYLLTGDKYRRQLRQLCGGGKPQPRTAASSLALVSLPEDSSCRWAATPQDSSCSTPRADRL
resultType: pEC50
Answer as the number alone; pEC50 is minus log10 of concentration in mol/L.

Request: Please look up its pEC50: O=c1ccn([C@@H]2O[C@H](COP(=O)(O)OP(=O)(O)OP(=O)(O)O)[C@@H](O)[C@H]2O)c(=O)[nH]1 [URIDINE TRIPHOSPHATE]
Response: 6.32

----------
target: P2Y purinoceptor 1 (Meleagris gallopavo, UniProt P49652); test: Agonist activity at turkey P2Y1 receptor expressed in human 1321N1 cells assessed as increase in intracellular calcium concentration by dual-excitation spectrofluorimetric analysis; assay type: functional, cell-based
Sequence (P49652 whole entry): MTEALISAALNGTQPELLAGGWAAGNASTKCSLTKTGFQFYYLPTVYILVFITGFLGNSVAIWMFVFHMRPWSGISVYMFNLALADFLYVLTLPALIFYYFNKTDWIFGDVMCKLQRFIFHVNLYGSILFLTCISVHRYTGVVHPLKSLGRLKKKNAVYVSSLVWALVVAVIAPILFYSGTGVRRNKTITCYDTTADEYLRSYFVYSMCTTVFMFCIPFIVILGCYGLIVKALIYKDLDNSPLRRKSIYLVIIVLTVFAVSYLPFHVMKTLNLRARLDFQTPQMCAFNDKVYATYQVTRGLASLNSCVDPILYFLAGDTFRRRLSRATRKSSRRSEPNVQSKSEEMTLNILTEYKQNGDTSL
pEC50: −log10 of the molar value.
resultType: pEC50

| molecule | resultType | experimentalResult |
| --- | --- | --- |
| CSc1nc(N)c2ncn([C@@H]3O[C@H](COP(=O)(O)OP(=O)(O)CP(=O)(O)O)[C@@H](O)[C@H]3O)c2n1 | pEC50 | 7.10 |

[A] BP(=O)(OC[C@H]1O[C@@H](n2cnc3c(N)nc(SC)nc32)[C@H](O)[C@@H]1O)OP(=O)(O)CP(=O)(O)O (single isomer, unassigned; diastereomer B)
[B] Nc1ncnc2c1ncn2[C@@H]1O[C@H](COP(=O)(O)OP(=O)(O)O)[C@@H](O)[C@H]1O [ADENOSINE DIPHOSPHATE]
Request: Of A and B , whose reported pEC50 is the larger number? Please identify the chosen entry by its label.
Response: B

src = ChEMBL document CHEMBL1137702
